- testedSystem: PKCι (Homo sapiens)
- Sequence (P41743 1-596): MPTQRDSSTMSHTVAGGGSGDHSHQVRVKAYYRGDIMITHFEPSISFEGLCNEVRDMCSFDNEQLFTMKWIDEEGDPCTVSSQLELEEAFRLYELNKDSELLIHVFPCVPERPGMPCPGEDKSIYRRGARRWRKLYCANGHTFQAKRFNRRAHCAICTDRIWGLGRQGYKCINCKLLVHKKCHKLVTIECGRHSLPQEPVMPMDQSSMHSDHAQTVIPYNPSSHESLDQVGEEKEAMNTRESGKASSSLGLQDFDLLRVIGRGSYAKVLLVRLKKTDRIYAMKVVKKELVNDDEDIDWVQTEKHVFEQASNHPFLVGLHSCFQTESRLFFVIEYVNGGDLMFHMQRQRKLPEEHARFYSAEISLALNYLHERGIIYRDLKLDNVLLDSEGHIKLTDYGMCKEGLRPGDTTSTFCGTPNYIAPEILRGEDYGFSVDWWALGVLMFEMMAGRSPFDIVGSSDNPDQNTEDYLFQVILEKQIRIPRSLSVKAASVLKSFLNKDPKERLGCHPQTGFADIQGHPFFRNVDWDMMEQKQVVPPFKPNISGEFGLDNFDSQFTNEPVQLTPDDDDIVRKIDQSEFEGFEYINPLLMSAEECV
- protocol: Z'-Lyte recombinant enzyme assay, PKCι
recordedMetric: IC50

**Query** Given Cc1ncc(F)c(Nc2n[nH]c3c2CN(C(=O)N2C[C@@H](C)N(CC4CCOCC4)C[C@@H]2C)C3(C)C)n1 , state its recorded IC50.
**Result** > 10 µM
